Target: T1, human GIP receptor (GIPR) (human, UniProt P48546-1 22-466)
T1 construct: human GIPR (NP_000155), untagged, expressed in HEK293 cells at low, medium or high density; also called glucose-dependent insulinotropic polypeptide receptor; source: HEK293 clonal cell lines, stably transfected (pcDNA3.1)
T1 sequence (looked up): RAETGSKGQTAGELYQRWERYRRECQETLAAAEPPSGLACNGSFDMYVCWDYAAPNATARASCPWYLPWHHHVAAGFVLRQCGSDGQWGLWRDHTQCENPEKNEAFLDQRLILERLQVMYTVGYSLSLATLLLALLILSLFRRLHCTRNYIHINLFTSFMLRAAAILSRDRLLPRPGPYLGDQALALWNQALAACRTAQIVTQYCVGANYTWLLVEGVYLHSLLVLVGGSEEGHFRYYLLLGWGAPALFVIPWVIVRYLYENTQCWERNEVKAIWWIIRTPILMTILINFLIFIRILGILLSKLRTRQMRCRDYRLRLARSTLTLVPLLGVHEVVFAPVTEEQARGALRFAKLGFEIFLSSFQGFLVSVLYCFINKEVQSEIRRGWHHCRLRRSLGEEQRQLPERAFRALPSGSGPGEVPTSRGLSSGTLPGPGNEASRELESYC
Experiment: radioligand binding
Conditions: one partner purified
Starred links: 1 amine or outer side, 2 acyl side, 3 side chain; linkers in the order of their positions; H or OH if unused. Non-standard residues stand in square brackets, D forms with d. Groups on a side chain read outwards from the residue. No end group written: not given here. *: point of attachment. C20 diacid = O=C(O)CCCCCCCCCCCCCCCCCCC(=O)*; γGlu = O=C(O)[C@H](CCC(=O)[*:2])N[*:1]; AEEA = NCCOCCOCC(=O)O; Aib = CC(C)(N)C(=O)O
measurement_name: Ki (nM)

Y[Aib]EGTFTSDYSI[Aib]LDKIAQK([AEEA-AEEA-γGlu-C20 diacid])AFVQWLIAGGPSSGAPPPS-NH2 [Tirzepatide (LY3298176)]
0.163
